B1: Dystrobrevin alpha, residues 235 to 294; numbered along this chain, Q9Y4J8 (parent)
chain: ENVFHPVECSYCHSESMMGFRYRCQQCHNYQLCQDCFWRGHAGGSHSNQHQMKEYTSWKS

Variants of: B1
Assay: abundance fitness (aPCA) (normalised: wild type 0, dead -1); higher = more abundant; growth selection in yeast, the domain comes from the species named
Conditions: Homo sapiens
measured.metric: abundance fitness

sequence_data=ENVFHPVECSYCHSESMMGFRYRCQQCHNYQLCQDCFWRGHAGGSHSNQHQWKEYTSWKS test_result=-0.449
sequence_data=ENVFHPVECSYCHSESNMGFRYRCQQCHNYQLCQDCFWRGHAGGSHSNQHQMKEYTSWKS test_result=0.046
sequence_data=ENVFHPVECSYCHSESMMGFRYRCQQCHNYQRCQDCFWRGHAGGSHSNQHQMKEYTSWKS test_result=-0.647
sequence_data=ENVFHPVECSYCHSESMMGFRYRCQQCHNYQLCQDCFWRGHAGGSHSNQHDMKEYTSWKS test_result=0.101
sequence_data=ENVFHPVECSYCHSESMMGWRYRCQQCHNYQLCQDCFWRGHAGGSHSNQHQMKEYTSWKS test_result=0.137
sequence_data=ENVFHPVECSYCHSESMMGFIYRCQQCHNYQLCQDCFWRGHAGGSHSNQHQMKEYTSWKS test_result=-0.128
sequence_data=VNVFHPVECSYCHSESMMGFRYRCQQCHNYQLCQDCFWRGHAGGSHSNQHQMKEYTSWKS test_result=-0.211
sequence_data=ENVFHPVECSYCHSESMMGFRYRCLQCHNYQLCQDCFWRGHAGGSHSNQHQMKEYTSWKS test_result=-0.026
sequence_data=ENVFHPVECSYCHSESMMGFRYRCQFCHNYQLCQDCFWRGHAGGSHSNQHQMKEYTSWKS test_result=-0.283
sequence_data=ENVFHPVECSYCHSESMMGFRYRCQQCHNYQLCQDCFWRGHAGGSHSNQHQMKEYFSWKS test_result=-0.642
sequence_data=ENVFHPVEMSYCHSESMMGFRYRCQQCHNYQLCQDCFWRGHAGGSHSNQHQMKEYTSWKS test_result=-1.31
